- Target Under Test: T1, human CD33 extracellular domain (human, UniProt P20138 18-259)
- T1 construct: soluble monomeric ECD; also called human CD33 ECD; hCD33
- Test Summary: SPR, Fab captured, 37C;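 further: Anti-CD33 Fabs captured on anti-Fab chip, soluble monomeric CD33 or its domains flowed over at several concentrations, double-referenced data fitted 1:1, Kd taken as koff/kon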
Please go through the items and note down their koff.
Answers are plain numbers, in s⁻¹.

Here is how some binders turned out for koff.
# Binder, Unit Name, koff
data = [
    ("ADI-10159 Fab (Fab, V domains shown, Fab fragment; also called Ab1; G59) VH: EVQLVESGGGLVQPGGSLRLSCAASGFTFSSYGMSWVRQAPGKGLEWVANIKQDGSEKYYVDSVKGRFTISRDNAKNSLYLQMNSLRAEDTAVYYCAREGGPYYDSSGYFVYYGMDVWGQGTTVTVSS VL: DIQMTQSPSTLSASVGDRVTITCRASQSISSWLAWYQQKPGKAPKLLIYDASSLESGVPSRFSGSGSGTEFTLTISSLQPDDFATYYCQQYESFPTFGGGTKVEIK", "s⁻¹", 0.00195),
    ("ADI-11809 Fab (Fab, V domains shown, Fab fragment; also called Ab6) VH: EVQLVESGGGLVQPGGSLRLSCAASGFTFPSYWMSWVRQAPGKGLEWVATIKRDGSEKGYVDSVKGRFTISRDNAKNSLYLQMNSLRAEDTAVYYCARPLNAGELDVWGQGTMVTVSS VL: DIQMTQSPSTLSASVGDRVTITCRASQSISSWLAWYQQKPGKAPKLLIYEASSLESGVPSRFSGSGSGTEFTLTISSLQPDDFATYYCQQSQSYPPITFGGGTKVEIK", "s⁻¹", "1.23e-06"),
]

Attention now turns to another entry.
Task: Name the recorded koff for ADI-11830 Fab (Fab, V domains shown, Fab fragment; also called Ab9) VH: EVQLVESGGGLVQPGGSLRLSCAASGFTFSSYWMSWVRQAPGKGLEWVANINTDGSEVYYVDSVKGRFTISRDNAKNSLYLQMNSLRAEDTAVYYCARDVGPGIAYQGHFDYWGQGTLVTVSS VL: DIQMTQSPSSLSASVGDRVTITCRASQVIYSYLNWYQQKPGKAPKLLIYAASSLKSGVPSRFSGSGSGTDFTLTISSLQPEDFATYYCQQVYDTPLTFGGGTKVEIK .
Output: 0.00547
